assay: Binding affinity to alpha4beta2* nAChR in Sprague-Dawley rat cortical membranes after overnight incubation by radioligand liquid scintillation counter analysis

| Molecule | Ki, pM |
| --- | --- |
| Clc1ccc([C@@H]2C[C@H]3CC[C@@H]2N3)cn1 [(+)-EPIBATIDINE] | 43 |

----------
biological target: Neuronal acetylcholine receptor subunit alpha-7 (Rattus norvegicus, UniProt Q05941); test: Displacement of [125I]alpha-Bungarotoxin from alpha7 nAChR in Sprague-Dawley rat hippocampal membranes pre-incubated for 5 mins followed by overnight incubation by radioligand liquid scintillation counter analysis
Sequence (Q05941 whole entry): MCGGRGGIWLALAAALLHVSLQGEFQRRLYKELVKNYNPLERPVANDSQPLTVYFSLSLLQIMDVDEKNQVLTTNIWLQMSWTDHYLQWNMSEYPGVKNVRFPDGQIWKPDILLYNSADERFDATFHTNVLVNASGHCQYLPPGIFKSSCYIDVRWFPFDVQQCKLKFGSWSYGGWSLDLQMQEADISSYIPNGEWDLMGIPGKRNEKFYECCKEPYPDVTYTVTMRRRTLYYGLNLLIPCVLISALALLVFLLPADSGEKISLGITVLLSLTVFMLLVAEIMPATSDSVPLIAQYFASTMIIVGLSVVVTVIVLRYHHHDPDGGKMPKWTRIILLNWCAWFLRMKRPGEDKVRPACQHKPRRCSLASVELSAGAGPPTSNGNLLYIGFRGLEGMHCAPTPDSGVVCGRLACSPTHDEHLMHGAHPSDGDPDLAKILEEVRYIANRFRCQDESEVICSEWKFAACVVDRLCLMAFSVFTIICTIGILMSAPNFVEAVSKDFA
Recorded Endpoint: Ki (µM)

| Smiles Entry | Recorded Endpoint | Recorded Measurement |
| --- | --- | --- |
| Clc1ccc(-c2cncc(N3CC4CC(C3)N4)c2)cc1 | Ki | 48 |
| Clc1ccc(-c2cncc(N3CC4CC(C3)N4)c2)c(Cl)c1 | Ki | 13 |
| COc1ccc(-c2cncc(N3CC4CC(C3)N4)c2)cc1 | Ki | 6.5 |
| Clc1ccc(Cl)c(-c2cncc(N3CC4CC(C3)N4)c2)c1 | Ki | 6 |
| c1ccc(-c2cncc(N3CC4CC(C3)N4)c2)cc1 | Ki | 17 |
| Fc1ccc(-c2cncc(N3CC4CC(C3)N4)c2)cc1 | Ki | 110 |
